The reported measurements were obtained from patent US20260226073A1.

// reported pIC50 per item
# TARGET: human recombinant CBL-b (human Biotin CBL-b recombinant protein a.a. 39-426) (Homo sapiens, UniProt Q13191)
# Construct: human Biotin CBL-b recombinant protein a.a; 39-426; Biotin (biotinylated)
# Sequence (Q13191 39-426): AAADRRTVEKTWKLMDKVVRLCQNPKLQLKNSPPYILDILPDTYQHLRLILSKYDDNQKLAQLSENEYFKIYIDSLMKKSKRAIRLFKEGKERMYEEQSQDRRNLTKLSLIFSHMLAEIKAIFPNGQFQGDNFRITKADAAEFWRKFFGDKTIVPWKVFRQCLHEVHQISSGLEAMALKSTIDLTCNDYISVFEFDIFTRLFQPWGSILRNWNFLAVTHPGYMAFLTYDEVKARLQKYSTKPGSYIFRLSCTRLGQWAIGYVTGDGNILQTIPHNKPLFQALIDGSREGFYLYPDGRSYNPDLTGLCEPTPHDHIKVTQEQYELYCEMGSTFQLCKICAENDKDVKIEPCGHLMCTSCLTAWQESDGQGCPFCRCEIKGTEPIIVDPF
# METHOD: Biochemical assay for CBL-b inhibition (ligand displacement TR-FRET)
# MEASUREMENT CONDITIONS: 50 nM CBL-b, 0.3 μM Bodipy FL-Probe, read-out: IC50 (CBL-b inhibition, group)
pIC50: −log10 of the molar value.
READOUT KIND: pIC50

COMPOUND: Cc1cc(CNCC2CC2)cc(N2Cc3ccc(C4(Cc5nncn5C)COC4)cc3C2=O)c1
RESULT: > 7.10
//
COMPOUND: Cn1cnnc1CC1(c2ccc3c(c2)C(=O)N(c2cc(CNCC4CC(F)(F)C4)cc(Cl)n2)C3)COC1
RESULT: > 7.10
//
COMPOUND: CC(Cc1nncn1C)c1cnc2c(c1)C(=O)N(c1cc(CN3CCC[C@H](C)C3)cc(Cl)n1)C2 (some centres unmarked)
RESULT: 6.52 to 7.10
//
COMPOUND: Cc1cc(CNCC2CC2)cc(N2Cc3ccc(C4(Cc5nncn5C)COC4)cc3C2=O)n1
RESULT: > 7.10
//
COMPOUND: C[C@@H]1C[C@H](C)CN(Cc2cc(N3Cc4ccc([C@@H](C)Cc5nncn5C)cc4C3=O)nc(C(F)(F)F)c2)C1 (single isomer, unassigned)
RESULT: > 7.10
//
COMPOUND: Cn1cnnc1CC1(c2ccc3c(c2)C(=O)N(c2cc(CNCCOCCOCCOCCN)cc(Cl)n2)C3)COC1
RESULT: 5.30 to 6.52
//
COMPOUND: Cn1cnnc1CC1(c2ccc3c(c2)C(=O)N(c2cc(CN4CC5CC5C4)cc(C(F)(F)F)n2)C3)COC1 (centres unmarked)
RESULT: 5.30 to 6.52
//
COMPOUND: COc1cc(CNCC2CCC2)cc(N2Cc3ccc(C(C)Cc4nncn4C)cc3C2=O)n1 (centres unmarked)
RESULT: 6.52 to 7.10
//
COMPOUND: C[C@H]1CCCN(Cc2cc(Cl)nc(N3Cc4ccc(C5(Cc6nncn6C)COC5)cc4C3=O)c2)C1
RESULT: > 7.10
//
COMPOUND: C[C@H](NCc1cc(Cl)nc(N2Cc3ccc(-c4ccc(Cl)cc4-c4nncn4C)cc3C2=O)c1)C1CC1 (single isomer, unassigned)
RESULT: > 7.10
//
COMPOUND: Cc1cc(CNCC2(CO)CC2)cc(N2Cc3ccc(-c4ccc(F)cc4-c4nncn4C)cc3C2=O)n1
RESULT: 6.52 to 7.10
